Below: a set of entries, each annotated with reported activity change, negative = inhibition.
Method Summary: AP1 Signaling Pathway (AID 357);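 further: ME-180 reporter cells stimulated with EGF at its EC50 level; on the % scale 0 is the no-effect control and ±100 the full control effect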
Test Parameters: ME-180 (cervical carcinoma) AP-1-bla reporter, EGF-induced, beta-lactamase ratio, 5 h; at 7.69 µM (top of the series) unless noted
Records with an inconclusive call do not appear. The source made the active and inactive calls. The call rests on the fitted dose curve; in most records, active means well fitted curve in either direction with a large enough effect (not every such curve was filed as active); inconclusive means small, poorly fitted or top-dose-only effect, or another doubt; inactive means flat fitted curve, though single readings scatter.

COc1ccc2[nH]c3cc4c(=O)c5cc(OC)ccc5[nH]c4cc3c(=O)c2c1; -2.15% (inactive)

Now let's try a different one.
For the compound shown here, C/C(=N/O)c1ccc2cc(Br)c3ccccc3c2c1 , give the reported activity change, negative = inhibition. 15% (inactive)

====

System: CP252
Method Summary: qHTS profiling for inhibitors of Plasmodium falciparum proliferation (AID 504749); further: nearly all actives have a fitted effect of over 60% in size
Test Parameters: P. falciparum in erythrocytes, SYBR Green DNA, 72 h; series mostly up to 28.7 µM
Inconclusive results are not listed. Calls of active or inactive are those of the source. Calls come from the whole dose curve; as a rule, active = well fitted inhibition curve with a large enough effect; inconclusive = small, poorly fitted or top-dose-only effect; inactive = flat fitted curve, though single readings scatter.
Pick one: YES (active), NO (inactive)

O=C(O)[C@@H](S)[C@H](S)C(=O)O; YES
CN(C)[C@H]1C(=O)C(C(=O)NCN2CCCC2)=C(O)[C@]2(O)C(=O)C3=C(O)c4c(O)cccc4[C@](C)(O)[C@H]3C[C@H]12; NO
CC1(C)S[C@@H]2[C@H](NC(=O)Cc3ccccc3)C(=O)N2[C@@H]1C(=O)O; NO

Dear colleague, could you share the recorded outcome for C=C1CC[C@H](O)C/C1=C/C=C1\CCC[C@]2(C)[C@@H]([C@H](C)CCCC(C)C)CC[C@@H]12 when you have a moment? NO

Here is the next molecule: COc1cccc2c1C(=O)c1c(O)c3c(c(O)c1C2=O)C[C@](O)(C(=O)CO)C[C@@H]3O[C@H]1C[C@H](N)[C@@H](O)[C@H](C)O1 NO

Here is the next molecule: Cc1onc(-c2c(F)cccc2Cl)c1C(=O)N[C@@H]1C(=O)N2[C@H]1SC(C)(C)[C@H]2C(=O)O NO

Here is the next molecule: OC[C@H](S)CS NO

Here is the next molecule: C(=C/c1ccccc1)/CN1CCN(C(c2ccccc2)c2ccccc2)CC1 NO

Here is the next molecule: C[C@@H]1C[C@H]2[C@H]3C[C@@H](F)C4=CC(=O)C=C[C@]4(C)[C@@]3(Cl)[C@@H](O)C[C@@]2(C)[C@@H]1C(=O)COC(=O)C(C)(C)C NO

====

Test Target: Glucocorticoid receptor (Homo sapiens) (UniProt P04150)
Sequence (P04150 whole entry, looked up): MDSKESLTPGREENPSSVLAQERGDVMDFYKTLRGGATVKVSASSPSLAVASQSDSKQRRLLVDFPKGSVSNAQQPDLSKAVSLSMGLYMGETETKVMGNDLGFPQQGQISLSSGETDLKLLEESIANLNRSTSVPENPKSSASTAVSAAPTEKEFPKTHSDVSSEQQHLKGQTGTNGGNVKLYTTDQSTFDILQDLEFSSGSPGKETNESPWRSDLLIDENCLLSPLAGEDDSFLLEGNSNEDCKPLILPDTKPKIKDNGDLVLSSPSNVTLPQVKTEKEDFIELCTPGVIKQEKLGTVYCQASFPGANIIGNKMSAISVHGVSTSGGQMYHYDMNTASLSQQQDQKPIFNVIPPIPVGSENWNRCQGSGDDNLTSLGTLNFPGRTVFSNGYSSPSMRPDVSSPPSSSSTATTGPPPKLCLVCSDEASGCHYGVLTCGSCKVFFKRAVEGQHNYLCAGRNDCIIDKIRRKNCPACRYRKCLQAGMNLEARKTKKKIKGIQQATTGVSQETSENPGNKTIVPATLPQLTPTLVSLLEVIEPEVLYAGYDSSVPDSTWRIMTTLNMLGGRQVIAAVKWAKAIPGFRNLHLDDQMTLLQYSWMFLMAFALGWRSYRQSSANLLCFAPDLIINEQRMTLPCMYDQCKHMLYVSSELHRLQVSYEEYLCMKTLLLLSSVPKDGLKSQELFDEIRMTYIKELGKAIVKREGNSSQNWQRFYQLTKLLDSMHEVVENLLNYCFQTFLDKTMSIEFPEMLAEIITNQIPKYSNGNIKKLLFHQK
Method Summary: GR-GFP Redistribution (AID 450); further: potency means the concentration at half of the fitted maximal effect
Test Parameters: U2OS GR-GFP nuclear translocation, laser cytometry, 2 h
Active and inactive are the calls of the source.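 Rule for the calls: active = compounds whose dose series gives a full or clear partial fitted curve of increased nuclear translocation; inconclusive = weak partial curve or effect only at the top dose; inactive = no dose-dependent translocation response.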
Readout Kind: Potency

Some entries whose results are on file:
CC(CC(=O)O)(CC(=O)O)c1ccccc1; > 46 µM (inactive)
CC1(C)[C@@H](CC(=O)O)CCC[C@@H]1CC(=O)O; > 46 µM (inactive)
CC(C)(C)CC(C)(C)c1cc(O)c(O)c(CN2CCCCC2)c1; > 46 µM (inactive)
COCCNc1nc(-c2ccc(C(=O)N(C)C)cc2)nc2ccccc12; > 46 µM (inactive)
NC(N)=N[C@@H]1C(O)[C@H](N=C(N)N)[C@@H](O)C(O)[C@H]1O (some centres undefined); > 46 µM (inactive)

For the molecule shown here, Nc1nc(N)nc(CCCc2nc(N)nc(N)n2)n1 , give the reported Potency. > 46 µM (inactive)

Here is the next molecule: COc1ccc2c(c1)[n+]([O-])c(/C(C)=N/NC(N)=S)c(C)[n+]2[O-] > 46 µM (inactive)
